Entry source: patent US20230348572A1

Attribute: ELISA A405
- Tested system: T1, SARS-CoV-2 Spike receptor binding domain (RBD, amino acids 330-532) (SARS-CoV-2, UniProt P0DTC2 330-532)
- T1 construct: range 330-532
- Assay explanation: phage ELISA on biotinylated RBD captured on neutravidin, anti-M13-HRP

Solved entries (count: 2):
Binder | ELISA A405
NbRBD_C7 (VHH) VHH: QVQLVESGGGLVQPGGSLRLSCAASGFTFSSYDMSWVRQAPGKGLEWVSGISGSDSTTVYSDSVKDRFTISRDNAKNTLYLQMNKLKPEDTALYYCARPLGQYTSWGQGTQVTVSS | > 1.5
NbRBD_B4 (VHH) VHH: QVQLVESGGGLVQPGGSLRLSCAASGFTFSSYWMYWVRQAPGKGLEWVSVINTGGDTTYYADSVKGRFTISRDNDENTLSLQMNSLKPEDTALYYCARTGVVRGPGDLDAWGQGTQVTVSS | > 1.5

Switching to the query record.
## Task Any idea what its ELISA A405 is? The binder is NbRDB_E11 (VHH) VHH: QVQLVESGGGLVQPGGSLRLSCAASGFTFSNYAMTWVRQAPGKGLEWISDIGSDGRHPAYADSVKGRYTISRDNAKNTLYLQMNSLKPEDTAMYYCLPGWSTVGTFLDAWGQGTQVTVSS
## Result > 1.5
